Biological target: SARS-CoV-2 M^pro (Severe acute respiratory syndrome coronavirus 2, UniProt P0DTD1)
endpoint.label: Ki (µM)

1. CCCC[C@H](NC(=O)[C@H](CC(C)C)NC(=O)OCc1ccccc1)C(O)S(=O)(=O)[O-].[Na+] (stereo partly shown) = 4.7

----------
Molecular target: human CatK (Homo sapiens, UniProt P43235)
Construct: made in house
Sequence (P43235 115-329): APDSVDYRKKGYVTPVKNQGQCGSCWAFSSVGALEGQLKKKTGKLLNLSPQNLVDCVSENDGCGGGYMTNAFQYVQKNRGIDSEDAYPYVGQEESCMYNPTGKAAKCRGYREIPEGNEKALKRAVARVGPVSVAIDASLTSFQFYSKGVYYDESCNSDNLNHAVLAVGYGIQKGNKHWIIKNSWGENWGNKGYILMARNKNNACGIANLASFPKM
Assay: Cathepsin inhibition test, CatK
Type: biochemical
Conditions: mean with standard deviation and 95% confidence interval; pH 5.5, 37 °C
# Ki per record follows
endpoint.label: Ki (nM)

1) CCCC[C@H](NC(=O)[C@H](CC(C)C)NC(=O)OCc1ccccc1)C(O)S(=O)(=O)[O-].[Na+] (some centres unmarked) [S-Calpeptin] = 0.05
2) CCCC[C@@H](C=O)NC(=O)[C@H](CC(C)C)NC(=O)OCc1ccccc1 [Calpeptin, reference compound] = 0.061

----------
Target: CatL (Homo sapiens, UniProt P07711)
Sequence (P07711 114-333): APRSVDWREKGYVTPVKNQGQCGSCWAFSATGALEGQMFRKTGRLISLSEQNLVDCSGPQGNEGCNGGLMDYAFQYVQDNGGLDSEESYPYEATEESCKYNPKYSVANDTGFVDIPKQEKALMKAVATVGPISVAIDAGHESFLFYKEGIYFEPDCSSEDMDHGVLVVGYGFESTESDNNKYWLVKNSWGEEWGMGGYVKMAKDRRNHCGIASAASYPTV
pKi: −log10 of the molar value.
endpoint.label: pKi

1. CC(C)C[C@H](NC(=O)OCc1ccccc1)C(=O)N[C@@H](CC1CCNC1=O)C(O)S(=O)(=O)O (stereo partly drawn) [GC-376, reference compound] = 9.59
2. CCCC[C@@H](C=O)NC(=O)[C@H](CC(C)C)NC(=O)OCc1ccccc1 [Calpeptin, reference compound] = 9.88
3. CCCC[C@H](NC(=O)[C@H](CC(C)C)NC(=O)OCc1ccccc1)C(O)S(=O)(=O)[O-].[Na+] (stereo partly drawn) [S-Calpeptin] = 9.83
